meta.source: patent US7732429B2

Test system: E. coli Class A Tc^r (DI-299)
Assay type: cell-based
Recorded conditions: drug alone
Would you mind telling me the reported log10 MIC of each entry?
Values are log10 of MIC in µg.

What does the data say about its log10 MIC? Entry: CN(C)C1C(O)=C(C(N)=O)C(=O)C2(O)C(O)=C3C(=O)c4c(O)cccc4C(CSCc4ccccc4)C3C(O)C12 (stereo not shown) 1.65

Using the record for CC(C)SCC1c2cccc(O)c2C(=O)C2=C(O)C3(O)C(=O)C(C(N)=O)=C(O)C(N(C)C)C3C(O)C21 (stereo not shown) , report its log10 MIC. 1.65

Recorded log10 MIC for CCSCC1c2cccc(O)c2C(=O)C2=C(O)C3(O)C(=O)C(C(N)=O)=C(O)C(N(C)C)C3CC21 (stereo not shown) [Ethyl, 6-deoxy-13-(ethylmercapto) tetracycline] , please? 1.15

Record request: log10 MIC value, item CN(C)C1C(O)=C(C(N)=O)C(=O)C2(O)C(O)=C3C(=O)c4c(O)cccc4C(CSC4CCCCC4)C3C(O)C12 (stereo not shown) 2.00

# log10 MIC lookup, item CN(C)C1C(O)=C(C(N)=O)C(=O)C2(O)C(O)=C3C(=O)c4c(O)cccc4C(C)(O)C3CC12 (stereo not shown) [Tetracycline, reference compound] 2.18

Name the recorded log10 MIC for CN(C)C1C(O)=C(C(N)=O)C(=O)C2(O)C(O)=C3C(=O)c4c(O)cccc4C(CSC4CCCC4)C3C(O)C12 (stereo not shown) . 1.60

---

Field: MIC. Provide a value for each of the compounds that follow.
System: E. coli Class B Tc^r (DI-209)
Assay type: cell-based
Recorded conditions: drug alone

I would be grateful if you could share the reported MIC for CN(C)c1ccc(O)c2c1C[C@H]1C[C@H]3[C@H](N(C)C)C(=O)C(C(N)=O)=C(O)[C@@]3(O)C(=O)C1=C2O [Minocycline, reference compound] . 6 ± 2 µg

Record request: MIC value, item CN(C)C1C(O)=C(C(N)=O)C(=O)C2(O)C(O)=C3C(=O)c4c(O)cccc4C(CSCc4ccccc4)C3C(O)C12 (stereo not drawn) [Benzyl] 30 ± 0.25 µg

Find the recorded MIC belonging to CC(C)SCC1c2cccc(O)c2C(=O)C2=C(O)C3(O)C(=O)C(C(N)=O)=C(O)C(N(C)C)C3C(O)C21 (stereo not drawn) [Isopropyl] and report it. 35 ± 6 µg

Tell me the measured MIC of CN(C)C1C(O)=C(C(N)=O)C(=O)C2(O)C(O)=C3C(=O)c4c(O)cccc4C(C)(O)C3CC12 (stereo not drawn) [Tetracycline, reference compound] , please. >200 µg

Item under review: CCSCC1c2cccc(O)c2C(=O)C2=C(O)C3(O)C(=O)C(C(N)=O)=C(O)C(N(C)C)C3CC21 (stereo not drawn) [Ethyl, 6-deoxy-13-(ethylmercapto) tetracycline] . Reported MIC? 36 ± 16 µg

Param item = CN(C)C1C(O)=C(C(N)=O)C(=O)C2(O)C(O)=C3C(=O)c4c(O)cccc4C(CSC4CCCC4)C3C(O)C12 (stereo not drawn) [Cyclopentyl] ; retrieve measured MIC. 80 ± 40 µg

---

Exercise: for every item that follows, state its recorded Ki.
Target entity: efflux protein (Escherichia coli, UniProt P02980)
Sequence (P02980 whole entry): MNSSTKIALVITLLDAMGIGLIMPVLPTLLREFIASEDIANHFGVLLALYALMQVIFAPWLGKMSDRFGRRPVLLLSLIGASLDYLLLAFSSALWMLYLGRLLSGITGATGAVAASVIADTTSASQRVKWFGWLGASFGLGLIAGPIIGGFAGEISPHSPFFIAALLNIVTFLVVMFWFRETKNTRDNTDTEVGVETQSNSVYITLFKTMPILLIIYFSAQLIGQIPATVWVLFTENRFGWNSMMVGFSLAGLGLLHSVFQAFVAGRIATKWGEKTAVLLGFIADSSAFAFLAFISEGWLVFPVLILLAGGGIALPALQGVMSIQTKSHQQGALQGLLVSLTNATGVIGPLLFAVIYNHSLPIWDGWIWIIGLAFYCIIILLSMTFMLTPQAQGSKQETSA
Method notes: everted membrane vesicle assay, blocking activity of 13-S-derivatives
Format: biochemical
Report only the number, with the unit nM understood.

Which measured Ki value corresponds to CN(C)C1C(O)=C(C(N)=O)C(=O)C2(O)C(O)=C3C(=O)c4c(O)cccc4C(CSCc4ccccc4)C3C(O)C12 (stereo not drawn) ? 1590

Dear colleague, I am looking for the recorded Ki of the following compound: CN(C)C1C(O)=C(C(N)=O)C(=O)C2(O)C(O)=C3C(=O)c4c(O)cccc4C(CSC4CCCC4)C3C(O)C12 (stereo not drawn) 367

Form field: reported Ki of CN(C)C1C(O)=C(C(N)=O)C(=O)C2(O)C(O)=C3C(=O)c4c(O)cccc4C(CSC4CCCCC4)C3C(O)C12 (stereo not drawn) 716
